Form field: hemoglobin (one value per entry).
PROCEDURE_SUMMARY: Hematology assays in cynomolgus monkeys (Example 45)
Type: in vivo
CONDITION: day 43; escalating dose regimen

SUBSTANCE | DISPLAY_UNIT | hemoglobin
ISIS 417002: MOE gapmer, nucleobases 1275 to 1318 of SEQ ID NO: 1 (Table 8) (antisense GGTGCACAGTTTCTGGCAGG; MOE gapmer, wing and gap sizes not given here) | g/dL | 12.3
ISIS 416858: MOE gapmer, nucleobases 1275 to 1318 of SEQ ID NO: 1 (Table 8) (antisense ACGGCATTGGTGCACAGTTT; MOE gapmer, wing and gap sizes not given here) | g/dL | 12.4
ISIS 416838: MOE gapmer, nucleobases 1018 to 1042 of SEQ ID NO: 1 (Table 6) (antisense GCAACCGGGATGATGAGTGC; MOE gapmer, wing and gap sizes not given here) | g/dL | 12.7
ISIS 416864: MOE gapmer, nucleobases 1275 to 1318 of SEQ ID NO: 1 (Table 8) (antisense GGCAGCGGACGGCATTGGTG; MOE gapmer, wing and gap sizes not given here) | g/dL | 12.2
ISIS 416850: MOE gapmer, nucleobases 1275 to 1318 of SEQ ID NO: 1 (Table 8) (antisense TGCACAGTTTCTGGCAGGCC; MOE gapmer, wing and gap sizes not given here) | g/dL | 11.8

---

PROCEDURE_SUMMARY: Hematology assays in cynomolgus monkeys (Example 45)
Format: in vivo
CONDITION: day 78; escalating dose regimen

SUBSTANCE | MCV
ISIS 416858: MOE gapmer, nucleobases 1275 to 1318 of SEQ ID NO: 1 (Table 8) (antisense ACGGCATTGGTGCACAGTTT; MOE gapmer, wing and gap sizes not given here) | 72 fL
ISIS 416850: MOE gapmer, nucleobases 1275 to 1318 of SEQ ID NO: 1 (Table 8) (antisense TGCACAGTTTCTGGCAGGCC; MOE gapmer, wing and gap sizes not given here) | 79 fL

---

Test system: human Factor 11 mRNA
PROCEDURE_SUMMARY: Antisense inhibition of human Factor 11 in HepG2 cells, lipofectin, 75 nM (Example 1)
Type: cell-based
CONDITION: 75 nM antisense oligonucleotide, ~24 h, relative to untreated control cells, gapmers targeted to SEQ ID NO: 1
Experimental: Antisense oligonucleotides targeted to a Factor 11 nucleic acid were tested for their effects on Factor 11 mRNA in vitro. […] After a treatment period of approximately 24 hours, RNA was isolated from the cells and Factor 11 mRNA levels were measured by quantitative real time PCR. Factor 11 mRNA levels were adjusted according to total RNA content, as measured by RIBOGREEN. […]
Strand notation (5' to 3'): a small letter for the sugar, then the base; units joined by * are phosphorothioate-linked, units joined directly phosphodiester-linked; [ ] holds rarer units or linkages, { } end groups; capitals alone tell only the bases. e = 2'-O-(2-methoxyethyl) (MOE); [5mC] = 5-methylcytosine; d = 2'-deoxy (DNA)
I would appreciate it if you labelled entries 1.0 when % inhibition is 50% or higher, otherwise 0.0.

SUBSTANCE | CLASS
412237 (antisense eT*eG*eA*e[5mC]*eT*d[5mC]*dT*dA*d[5mC]*d[5mC]*d[5mC]*d[5mC]*dA*dT*dA*eG*eA*eA*eA*e[5mC]) [compound 412237] | 0.0
412228 (antisense eA*eT*eG*eT*eG*dT*dA*dT*d[5mC]*d[5mC]*dA*dG*dA*dG*dA*eT*eG*e[5mC]*e[5mC]*eT) [compound 412228] | 1.0
412211 (antisense eG*eA*eT*eT*eA*dG*dA*dA*dA*dG*dT*dG*d[5mC]*dA*d[5mC]*eA*eG*eG*eA*eT) [compound 412211] | 1.0
412248 (antisense e[5mC]*e[5mC]*eA*eG*eA*dT*dG*d[5mC]*d[5mC]*dA*dG*dA*d[5mC]*d[5mC]*dT*e[5mC]*eA*eT*eT*eG) [compound 412248] | 1.0
412219 (antisense eG*eG*e[5mC]*eA*eG*dA*dA*d[5mC]*dA*d[5mC]*dT*dG*dG*dG*dA*eT*eG*e[5mC]*eT*eG) [compound 412219] | 1.0

---

PROCEDURE_SUMMARY: Bleeding assay, Surgicutt Jr. device (Example 45)
Assay type: in vivo, cynomolgus monkeys
Set-up: unit not given here
CONDITION: day 15; escalating dose regimen

SUBSTANCE | bleeding time
ISIS 416838: MOE gapmer, nucleobases 1018 to 1042 of SEQ ID NO: 1 (Table 6) (antisense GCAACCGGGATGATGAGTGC; MOE gapmer, wing and gap sizes not given here) | 167
ISIS 416864: MOE gapmer, nucleobases 1275 to 1318 of SEQ ID NO: 1 (Table 8) (antisense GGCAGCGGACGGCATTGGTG; MOE gapmer, wing and gap sizes not given here) | 153
ISIS 416858: MOE gapmer, nucleobases 1275 to 1318 of SEQ ID NO: 1 (Table 8) (antisense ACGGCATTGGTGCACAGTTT; MOE gapmer, wing and gap sizes not given here) | 146

---

Tested on: blood coagulation
PROCEDURE_SUMMARY: PT and aPTT assay in cynomolgus monkeys (Example 46)
Format: in vivo
CONDITION: Day 52; platelet poor plasma; relative to PBS group
Strand notation (5' to 3'): a small letter for the sugar, then the base; units joined by * are phosphorothioate-linked, units joined directly phosphodiester-linked; [ ] holds rarer units or linkages, { } end groups; capitals alone tell only the bases. e = 2'-O-(2-methoxyethyl) (MOE); [5mC] = 5-methylcytosine; d = 2'-deoxy (DNA)

SUBSTANCE | aPTT ratio relative to PBS group
ISIS 416858: MOE gapmer, nucleobases 1275 to 1318 of SEQ ID NO: 1 (Table 8) (antisense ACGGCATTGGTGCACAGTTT; MOE gapmer, wing and gap sizes not given here) | 1.53
ISIS 445531: 5-8-5 or 6-8-6 MOE microwalk gapmer (Table 44) (antisense eG*eG*e[5mC]*eA*eT*dT*dG*dG*dT*dG*d[5mC]*dA*d[5mC]*eA*eG*eT*eT*eT) | 1.15
ISIS 449707: 3-8-3, 4-8-4, 2-10-2, 3-10-3 or 4-10-4 MOE microwalk gapmer (Table 46) (antisense e[5mC]*eA*e[5mC]*eA*dG*dT*dT*dT*d[5mC]*dT*dG*dG*e[5mC]*eA*eG*eG) | 0.99
ISIS 449709: 3-8-3, 4-8-4, 2-10-2, 3-10-3 or 4-10-4 MOE microwalk gapmer (Table 46) (antisense eG*e[5mC]*eA*e[5mC]*dA*dG*dT*dT*dT*d[5mC]*dT*dG*dG*d[5mC]*eA*eG*eG*e[5mC]) | 1.09

---

Form field: percent inhibition of human Factor 11 mRNA relative to untreated control cells (one value per entry).
Test system: human Factor 11 mRNA
PROCEDURE_SUMMARY: Dose-dependent inhibition of human Factor 11 in HepB3 cells, electroporation (Example 7)
Format: cell-based
CONDITION: 3333.33 nM, ~16 hours
ASSAY_ENDPOINT: percent inhibition of human Factor 11 mRNA relative to untreated control cells

SUBSTANCE | TARGET | DATA_VALUE
417003 (antisense TGGTGCACAGTTTCTGGCAG; 2-13-5 gapmer chemistry, further chemistry not given here) [compound 417003] | human Factor 11 mRNA | 84%
416826 (antisense ATGCCCTTCATGTCTAGGTC; 5-10-5 gapmer, further chemistry not given here) [compound 416826] | human Factor 11 mRNA | 87%
416858 (antisense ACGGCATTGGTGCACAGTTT; 5-10-5 gapmer, further chemistry not given here) [compound 416858] | human Factor 11 mRNA | 87%
416864 (antisense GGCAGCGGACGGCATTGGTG; 5-10-5 gapmer, further chemistry not given here) [compound 416864] | human Factor 11 mRNA | 75%
416892 (antisense GCCCTTCATGTCTAGGTCCA; 3-14-3 chimeric gapmer, further chemistry not given here) [compound 416892] | human Factor 11 mRNA | 89%
417002 (antisense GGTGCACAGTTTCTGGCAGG; 2-13-5 gapmer chemistry, further chemistry not given here) [compound 417002] | human Factor 11 mRNA | 86%
416838 (antisense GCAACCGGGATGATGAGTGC; 5-10-5 gapmer, further chemistry not given here) [compound 416838] | human Factor 11 mRNA | 77%
416825 (antisense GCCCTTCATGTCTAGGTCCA; 5-10-5 gapmer, further chemistry not given here) [compound 416825] | human Factor 11 mRNA | 90%
416999 (antisense GCACAGTTTCTGGCAGGCCT; 2-13-5 gapmer chemistry, further chemistry not given here) [compound 416999] | human Factor 11 mRNA | 94%
416925 (antisense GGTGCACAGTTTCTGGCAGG; 3-14-3 gapmer chemistry, further chemistry not given here) [compound 416925] | human Factor 11 mRNA | 88%
416850 (antisense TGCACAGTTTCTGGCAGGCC; 5-10-5 gapmer, further chemistry not given here) [compound 416850] | human Factor 11 mRNA | 90%

Data origin, for the record: patent US20230263822A1
